Experiment: Intracerebral transferability after caudal vein administration
Assay type: in vivo
Conditions: male, Wistar, plasma, intravenous, rat, 2 mg/head, 3 minutes after administration
measured.property: concentration at 3 min
Just so you know, I need the unit written after the number.

IN: Entry under review: "CCN1/C(=C/C(C)=O)Sc2ccc3c(c21)CCO3" . Reported concentration at 3 min?
OUT: 13.5 µM

* * *

Assay: Oral absorbability and intracerebral transferability (plasma and brain tissue concentration)
Assay type: in vivo
Conditions: male, plasma and brain tissue, ICR mouse, 100 mg/kg, read-out: Half-life in blood and in brain tissue
Protocol: The oral absorbability and the intracerebral transferability of the compounds 1 and 2 were evaluated under the following conditions. FIG. 6 and Table 1 show an example of the results. Experimental animal: 7-week-old male ICR mouse, oral administration Administered vehicle: 0.5% carboxymethylcellulose Compound dosage: 100 mg/kg FIG. 6 and Table 1 show an example of the results of measuring a plasma concentration and a brain tissue concentration after oral administration of the compounds 1 and 2. […]
Reported values of half-life for individual entries

CCN1/C(=C/C(C)=O)Sc2ccc3c(c21)CCO3 ≤ 1 h

IN: Entry under review: "CCN1/C(=C/C(C)=O)Sc2ccc3occc3c21" . Reported half-life?
OUT: ≥ 4 h
